Listing of entries alongside the reported binding activity, ERβ and Estradiol.
Molecular target: ERβ (Homo sapiens)
Sequence (Q92731 whole entry): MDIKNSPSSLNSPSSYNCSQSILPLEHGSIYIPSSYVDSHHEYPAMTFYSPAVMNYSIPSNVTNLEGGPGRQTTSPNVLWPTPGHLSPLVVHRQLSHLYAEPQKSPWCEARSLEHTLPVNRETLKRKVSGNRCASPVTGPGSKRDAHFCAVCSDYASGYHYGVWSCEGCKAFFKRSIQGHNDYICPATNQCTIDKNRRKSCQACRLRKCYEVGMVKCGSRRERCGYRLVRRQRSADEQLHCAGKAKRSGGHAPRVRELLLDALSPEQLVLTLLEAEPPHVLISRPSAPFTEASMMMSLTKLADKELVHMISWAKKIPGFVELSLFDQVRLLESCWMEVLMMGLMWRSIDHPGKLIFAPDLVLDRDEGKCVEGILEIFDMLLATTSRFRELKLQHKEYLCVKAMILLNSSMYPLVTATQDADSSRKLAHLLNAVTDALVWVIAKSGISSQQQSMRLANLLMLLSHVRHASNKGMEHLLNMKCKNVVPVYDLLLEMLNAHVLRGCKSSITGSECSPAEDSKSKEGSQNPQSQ
Test: Phage ELISA / fingerprint on ER immobilized on biotinylated ERE (Examples 2.3-2.5)
Format: binding
Parameters: purchased PanVera Corporation, Madison, WI; key: semiquantitative scale of 0 to 7+; 1+: semiquantitative scale of 0 to 7+; 2+: semiquantitative scale of 0 to 7+; 3+: semiquantitative scale of 0 to 7+; 4+: semiquantitative scale of 0 to 7+; 5+: semiquantitative scale of 0 to 7+; 6+: semiquantitative scale of 0 to 7+; semiquantitative scale of 0 to 7+
Conditions: ERβ and Estradiol (1 µM)

{"Chain": "SRPEGSSWLLHYLSR [Peptide 24E-β]", "Tgt": "ERβ (Homo sapiens)", "binding activity, ERβ and Estradiol": "7+"}

The recorded binding activity, ERβ and Estradiol with ERβ (Homo sapiens) for SSQEEWLLPWRLASR [Peptide 8t-β] was 5+

Short answer on ERβ (Homo sapiens) for SSYEIPKWALQWLSR [Peptide 34E-β] , binding activity, ERβ and Estradiol: 6+

The sequence SSTTWRCPEWYCGSR [Peptide 30E-β] on ERβ (Homo sapiens): binding activity, ERβ and Estradiol was 7+

binding activity, ERβ and Estradiol for ERβ (Homo sapiens) with input SSRTPILFSLLETSR [Peptide 11E-β] equals 6+

Record for SRLEDLLRGDSKPQSR [Peptide 7E-β] under target or system ERβ (Homo sapiens): binding activity, ERβ and Estradiol reported as 6+

The reported binding activity, ERβ and Estradiol value, ERβ (Homo sapiens), for SRLPPSVFSMCGSEVCLSR [Peptide 9t-β] reads 2+

====

Biological target: ERα (Homo sapiens)
Sequence (P03372 1-595): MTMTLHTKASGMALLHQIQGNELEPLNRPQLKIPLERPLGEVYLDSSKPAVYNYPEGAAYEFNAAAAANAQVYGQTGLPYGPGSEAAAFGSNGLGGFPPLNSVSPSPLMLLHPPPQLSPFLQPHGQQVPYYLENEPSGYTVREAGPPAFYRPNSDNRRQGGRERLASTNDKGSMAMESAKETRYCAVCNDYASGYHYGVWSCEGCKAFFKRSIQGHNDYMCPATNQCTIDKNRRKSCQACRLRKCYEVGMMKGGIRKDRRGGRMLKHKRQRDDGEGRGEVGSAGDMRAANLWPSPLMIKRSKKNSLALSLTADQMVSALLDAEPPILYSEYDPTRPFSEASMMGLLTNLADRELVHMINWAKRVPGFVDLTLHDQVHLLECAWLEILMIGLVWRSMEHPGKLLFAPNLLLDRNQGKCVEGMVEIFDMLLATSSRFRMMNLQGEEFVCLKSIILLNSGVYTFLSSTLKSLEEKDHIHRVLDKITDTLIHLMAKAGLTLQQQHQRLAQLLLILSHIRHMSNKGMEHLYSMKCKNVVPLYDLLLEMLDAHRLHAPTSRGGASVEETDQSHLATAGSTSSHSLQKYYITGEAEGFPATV
Assay: Phage ELISA / fingerprint on ER immobilized on biotinylated ERE (Examples 2.3-2.5)
Type: binding
Parameters: purchased PanVera Corporation, Madison, WI; key: semiquantitative scale of 0 to 7+; 1+: semiquantitative scale of 0 to 7+; 2+: semiquantitative scale of 0 to 7+; 3+: semiquantitative scale of 0 to 7+; 4+: semiquantitative scale of 0 to 7+; 5+: semiquantitative scale of 0 to 7+; 6+: semiquantitative scale of 0 to 7+; semiquantitative scale of 0 to 7+
Conditions: ERα and estradiol (1 µM)
binding activity, ERα and estradiol values, listed per item

{"Chain": "SRDWRSGFLYELLSR [Peptide 4E-β]", "binding activity, ERα and estradiol": "5+"}
{"Chain": "SYSKEWFEERLNSR [Peptide 4b-β]", "binding activity, ERα and estradiol": "3+"}
{"Chain": "SSQEEWLLPWRLASR [Peptide 8t-β]", "binding activity, ERα and estradiol": "2+"}
{"Chain": "SSDTRSRLYELLSSSYTSR [Peptide 5E-β]", "binding activity, ERα and estradiol": "6+"}
{"Chain": "SRLEDLLRGDSKPQSR [Peptide 7E-β]", "binding activity, ERα and estradiol": "6+"}
{"Chain": "SSWNSREFFLSQLSR [Peptide 5t-β]", "binding activity, ERα and estradiol": "2+"}

Summary for this sequence, SSRCSSLLCEMLIQTKESR [Peptide 22E-β] : binding activity, ERα and estradiol is 5+

// SSRLVPHSFWLDGLMHGSR [Peptide 21t-β] : binding activity, ERα and estradiol value = 3+

binding activity, ERα and estradiol recorded for this sequence, SSILERLLGGGSAETV [Peptide 9E-β] , is 4+

For this sequence ( SSYDWQCPSWYCPAPPSSR [Peptide 29E-β] ), measured binding activity, ERα and estradiol is 4+

Entry SSPGSREWFKDMLSR [Peptide 14t-β] , binding activity, ERα and estradiol reported as 2+

Per the records, this sequence ( SSKLYCLLDESYCSR [Peptide 21b-β] ) has binding activity, ERα and estradiol equal to 7+

binding activity, ERα and estradiol recorded for this sequence, SSRGLLWDLLTKDSR [Peptide 1E-β] , is 7+

The sequence SSVASREWWVRELSR [Peptide 15t-β] showed binding activity, ERα and estradiol equal to 2+

For this sequence ( HSWLGPWRLSSIDLGG [Peptide 24b-β] ), measured binding activity, ERα and estradiol is 2+

In plain terms, SSVFTIMDGKVALSR [Peptide 1t-β] has a documented binding activity, ERα and estradiol of 3+

Just so you know, measured binding activity, ERα and estradiol for SREWEDGFGGRWLSR [Peptide 4t-β] came out at 2+

====

# binding activity, ERα and buffer per entry
Biological target: ERα (Homo sapiens, UniProt P03372)
Sequence (P03372 1-595): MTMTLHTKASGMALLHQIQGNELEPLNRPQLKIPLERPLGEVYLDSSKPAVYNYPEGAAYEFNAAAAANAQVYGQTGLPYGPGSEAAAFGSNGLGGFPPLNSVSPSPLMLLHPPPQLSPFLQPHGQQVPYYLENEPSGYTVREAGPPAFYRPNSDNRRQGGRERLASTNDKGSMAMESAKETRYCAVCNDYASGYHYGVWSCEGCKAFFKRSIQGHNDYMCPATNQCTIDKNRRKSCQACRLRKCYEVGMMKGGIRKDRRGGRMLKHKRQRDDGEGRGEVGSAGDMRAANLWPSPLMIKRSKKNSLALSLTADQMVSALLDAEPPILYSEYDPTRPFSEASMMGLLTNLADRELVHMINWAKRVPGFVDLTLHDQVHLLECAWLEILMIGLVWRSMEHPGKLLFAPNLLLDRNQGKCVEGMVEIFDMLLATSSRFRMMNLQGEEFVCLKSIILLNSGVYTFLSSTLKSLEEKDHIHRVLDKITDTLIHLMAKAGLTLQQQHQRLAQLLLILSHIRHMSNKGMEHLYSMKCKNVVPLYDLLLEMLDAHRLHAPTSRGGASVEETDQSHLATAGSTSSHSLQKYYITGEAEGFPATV
Assay: Phage ELISA / fingerprint on ER immobilized on biotinylated ERE (Examples 2.3-2.5)
Type: binding
Design: purchased PanVera Corporation, Madison, WI; key: semiquantitative scale of 0 to 7+; 1+: semiquantitative scale of 0 to 7+; 2+: semiquantitative scale of 0 to 7+; 3+: semiquantitative scale of 0 to 7+; 4+: semiquantitative scale of 0 to 7+; 5+: semiquantitative scale of 0 to 7+; 6+: semiquantitative scale of 0 to 7+; semiquantitative scale of 0 to 7+
Conditions: ERα and buffer

{"Chain": "SSPTGHRLLESLLLNSNSR [Peptide 8E-β]", "Measured Value": "4+"}
{"Chain": "SSIPPRSWWLSQLSR [Peptide 19b-β]", "Measured Value": "5+"}
{"Chain": "SSDTRSRLYELLSSSYTSR [Peptide 5E-β]", "Measured Value": "4+"}

So, SSRTLYCHLTSSNPEWCSR [Peptide 27E-β] ? Its binding activity, ERα and buffer was 4+

Data point: SSYEIPKWALQWLSR [Peptide 34E-β] ; binding activity, ERα and buffer = 5+

Quick note, binding activity, ERα and buffer for SSRTLLEHYLLGGSR [Peptide 20E-β] landed at 5+

Form: sequence = SSISTYHMGEWFYAMLSSR [Peptide 22t-β] ; binding activity, ERα and buffer = 3+

The recorded binding activity, ERα and buffer for SRWWLDDHELLLYSSR [Peptide 26E-β] is 6+

====

Target: ERα (Homo sapiens, UniProt P03372)
Sequence (P03372 1-595): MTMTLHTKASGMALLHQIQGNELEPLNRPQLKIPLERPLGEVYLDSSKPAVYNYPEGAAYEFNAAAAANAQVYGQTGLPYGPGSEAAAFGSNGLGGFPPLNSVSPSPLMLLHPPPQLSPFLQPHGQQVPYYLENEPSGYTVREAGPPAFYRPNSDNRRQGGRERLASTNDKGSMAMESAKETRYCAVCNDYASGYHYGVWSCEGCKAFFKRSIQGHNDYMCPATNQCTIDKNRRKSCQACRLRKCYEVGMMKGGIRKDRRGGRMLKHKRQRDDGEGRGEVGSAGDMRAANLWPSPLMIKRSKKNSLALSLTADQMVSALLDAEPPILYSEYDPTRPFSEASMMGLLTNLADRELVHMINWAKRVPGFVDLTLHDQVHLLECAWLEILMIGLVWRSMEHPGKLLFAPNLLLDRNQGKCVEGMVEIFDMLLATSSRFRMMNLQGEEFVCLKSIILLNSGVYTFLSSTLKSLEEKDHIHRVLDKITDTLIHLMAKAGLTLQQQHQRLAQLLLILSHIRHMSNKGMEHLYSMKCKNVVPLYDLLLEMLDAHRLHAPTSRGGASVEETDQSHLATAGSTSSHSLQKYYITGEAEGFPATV
Experiment: Phage ELISA / fingerprint on ER immobilized on biotinylated ERE (Examples 2.3-2.5)
Format: binding
Set-up: purchased PanVera Corporation, Madison, WI; key: semiquantitative scale of 0 to 7+; 1+: semiquantitative scale of 0 to 7+; 2+: semiquantitative scale of 0 to 7+; 3+: semiquantitative scale of 0 to 7+; 4+: semiquantitative scale of 0 to 7+; 5+: semiquantitative scale of 0 to 7+; 6+: semiquantitative scale of 0 to 7+; semiquantitative scale of 0 to 7+
Conditions: ERα and tamoxifen (4-OH tamoxifen, 1 µM)
Quantity Measured: binding activity, ERα and tamoxifen

Field: example entries. Status: answers known.
{"Chain": "SRECVGGWCLAELSR [Peptide 18b-β]", "binding activity, ERα and tamoxifen": "2+"}
{"Chain": "SRPYCLGDVWCLDSR [Peptide 2t-β]", "binding activity, ERα and tamoxifen": "3+"}
{"Chain": "SSRLLCLLDAGQCSR [Peptide 16E-β]", "binding activity, ERα and tamoxifen": "3+"}
{"Chain": "SSGSSAGRLMMLLQDGVSR [Peptide 13E-β]", "binding activity, ERα and tamoxifen": "5+"}

Form: sequence = SRLHCLLDSSYCSSR [Peptide 1b-β] ; binding activity, ERα and tamoxifen = 3+
